// GI50 lookup, one value per entry
Test system: A498
Experiment: NCI tumour cell line growth inhibition, 48 h
Activity calls are given as the source filed them. Cut-off read from the data, not from the text of the source: active = GI50 up to about 1.1 µM and inactive = higher.

Worked examples, 4 molecules total:
COc1ccc(/C(Cl)=C(\C=O)c2ccc(Br)cc2)cc1OC    88.9 µM (inactive)
Oc1cc(Br)cc2cc(Cl)cnc12    8.26 µM (inactive)
Cc1nc(-c2ccc(Cl)cc2)cn2c1nc1ccccc12    > 100 µM (inactive)
Cc1cc2c(=Cc3ccc(N(C)C)cc3)c3ccccc3n2[n+]1C    1.87 µM (inactive)

Kindly consider the entry below.
Request: I would be grateful if you could share the reported GI50 for CC(=O)NC1C(OCc2ccccc2)OC(CO)C(O)C1OCC(=O)NC(C)C(=O)NC(CCC(=O)NCCCCCC(=O)Nc1ccc2c(c1)CN1C(=O)c3ccccc3C1=N2)C(N)=O (stereo not given) .
Result: > 100 µM (inactive)

* * *

// GI50 lookup, one value per entry
Tested on: LOX IMVI
Test: NCI tumour cell line growth inhibition, 48 h
The source made the active and inactive calls. Rule as the data show it: active = GI50 up to about 1.1 µM and inactive = higher.

COC(=O)c1cnn2c1ccc1ccccc12    > 100 µM (inactive)
O=C1CCC(c2ccccc2)(c2ccccc2)CC1    > 100 µM (inactive)

Request: I would be grateful if you could share the reported GI50 for Cc1c(N2CCOCC2)nc2ccc(Cl)cc2c1-c1ccccc1 .
Result: 49.4 µM (inactive)

Request: Cn1c2c(c3ccccc31)CCN1C(=O)C3SC21C1C(=O)N(c2ccccc2)C(=O)C31 (stereo unspecified)
Result: > 100 µM (inactive)

Request: COC(=O)c1ccc2n1C1CC3CC(CC2C3)C1
Result: > 100 µM (inactive)

Request: CCOC(=O)C(=O)/C(=C/NC(=S)Nc1ccc(Cl)c(Cl)c1)C(=O)OCC
Result: > 100 µM (inactive)

* * *

Test system: Malme-3M
Test: NCI tumour cell line growth inhibition, 48 h
Active and inactive are the calls of the source. Rule as the data show it: active = GI50 up to about 1.1 µM and inactive = higher.
Result category, one only: 1 (active), -1 (inactive)

As a guide, the following entries are already answered.
CC(=O)OC1C[C@H]2C(OC(=O)c3ccccc3)C3C4(OC(C)=O)COC4C[C@H](OC(C)=O)[C@@]3(C)C(OC(C)=O)[C@H](OC(C)=O)C(=C1C)C2(C)C (stereo not given in full)    -1
C=CCN(c1cc(OC)c2[nH]c(C(=O)OCC)c(C)c2c1[N+](=O)[O-])S(C)(=O)=O    -1
O=C(/C=C/c1ccc(O)c(-c2cc(C(=O)/C=C/c3ccc(O)cc3)c(O)cc2O)c1)c1ccc(O)cc1O    -1
COc1cc2c(cc1OC)C(=O)C(C1=C(SC(=N)N)C(=O)c3cc(OC)c(OC)cc31)C2 (stereo not given)    -1
CC1OC1C(=O)C1(O)C(C)C(O)C23OC2(C(O)c2c(O)cccc2C3=O)C1O (stereo not given)    1
Cc1cn(C2CC(O)C(CO[Si](C)(C)C(C)(C)C)OC2OC(C)C)c(=O)[nH]c1=O (stereo not given)    -1
COc1ccc(Cc2ccccc2C(=O)O)c2ccccc12    -1
Cc1cn(C2CC(CCCO)C(CO)O2)c(=O)[nH]c1=O (stereo not given)    -1

Request: Field: outcome | Entry: O=C(O)CCSC(=O)Nc1ccc(/N=N/c2ccccc2)cc1
Result: -1

Request: Cc1cc(C)nc(NS(=O)(=O)c2ccc(Nc3c4ccccc4nc4c(C(=O)N5CCN(CCO)CC5)cccc34)cc2)n1
Result: -1

Request: CN1C2CC(=O)CC1[C@H](O)[C@@H]2O
Result: -1

Request: CCOC(=O)NC(Nc1ccc([N+](=O)[O-])cc1)(C(F)(F)F)C(F)(F)F
Result: -1
